assay: MTT cytotoxicity assay, BEAS-2B control cells; format: cell-based; conditions: human, BEAS-2B cells, read-out: Cytostatic activity (% viable cells)
metricName: viability at 72 h (%)
Value expressed in %; do not type the unit.

I'd like to know its viability at 72 h. The compound in question is COc1ccc(/C=C\c2cc(OC)c(OC)c(OC)c2)cc1O
80

###

assay: MTT cytotoxicity assay, BEAS-2B control cells; type: cell-based; conditions: human, read-out: Cytostatic activity (% viable cells)
metricName: viability at 72 h (%)
Only the number, expressed in %, is required.

May I ask what viability at 72 h has been recorded for COc1cc(/C=C\c2ccc3c(c2)sc(=O)n3C)cc(OC)c1OC [Compound 26Z] ?
80

###

Record form. Attribute: IC50. Fill in for each entry.
system: EA.hy926 cells; assay: MTT cytotoxicity / growth inhibition assay, EA.hy926; assay type: cell-based, human; details: 72 h of treatment
Quick reminder: number only, in µM, skip the unit.

Provide the documented IC50 with EA.hy926 cells as the system for COc1ccc(/C=C\c2cccc3sc(=O)n(C)c23)cc1 [Compound 15Z]
22

GET /values?readout=IC50&system=EA.hy926 cells&item= COc1cc(/C=C/c2ccc3c(c2)sc(=O)n3C)cc(OC)c1OC [Compound 26E]
38.2

###

test system: α,β-tubulin; assay: In vitro quantification of polymeric vs. soluble tubulin fractions in EA.hy926 cells; type: cell-based, human; conditions: EA.hy926, 1 µM, 6 h; DMSO control 2.33 ± 0.14
metricName: soluble vs. polymerized tubulin ratio
// return a plain number; no unit text

Need soluble vs. polymerized tubulin ratio of CC(=O)O[C@H]1C(=O)[C@@]2(C)[C@H]([C@H](OC(=O)c3ccccc3)[C@]3(O)C[C@H](OC(=O)[C@H](O)[C@@H](NC(=O)c4ccccc4)c4ccccc4)C(C)=C1C3(C)C)[C@]1(OC(C)=O)CO[C@@H]1C[C@@H]2O [paclitaxel, reference compound] , thanks.
0.51

Value lookup for soluble vs. polymerized tubulin ratio; key = COc1cc(/C=C\c2ccc3c(c2)sc(=O)n3C)cc(OC)c1OC [Compound 26Z]
2.74

Tell me the measured soluble vs. polymerized tubulin ratio of COc1ccc(/C=C\c2cc(OC)c(OC)c(OC)c2)cc1O , please.
3.3

Which soluble vs. polymerized tubulin ratio reading was recorded for the compound COc1cc(/C=C\c2cccc3c2sc(=O)n3C)cc(OC)c1OC [Compound 27Z] ?
1.82

###

test system: HT-29 cells; assay: MTT cytotoxicity assay, HT-29; type: cell-based, human; details: Homo sapiens, HT-29, 72 h
metricName: pIC50
// returns pIC50 (minus log10 of molar concentration), number only

Requested field: pIC50. Item: COc1cc(/C=C\c2ccc3c(c2)sc(=O)n3C)cc(OC)c1OC [Compound 26Z]
8.10

###

test: MTT cytotoxicity assay, MCF-10A control cells; type: cell-based, human; settings: human, read-out: Cytostatic activity (% viable cells)
metricName: viability at 72 h
Report as: number unit

Request the reported viability at 72 h associated with COc1cc(/C=C\c2ccc3c(c2)sc(=O)n3C)cc(OC)c1OC [Compound 26Z]
65%

###

Tested on: MCF-10A cells
Test: MTT cytotoxicity assay, MCF-10A control cells
Type: cell-based, human
Details: Homo sapiens, 72 h
Description: All tested compounds were dissolved in DMSO at 25 mM initial concentration and diluted with medium to obtain the working concentrations (0.01 nM–250 µM). Serial drug dilutions were prepared in medium immediately before each experiment. The DMSO working concentration in the medium was 0.01 µM. […] Cell viability was determined using the MTT assay. […] Cell viability was determined by measuring absorbance at 550/630 nm using a DTX880 plate reader (Beckman Coulter, USA). […]
metricName: pIC50
Expect pIC50 as a plain number equal to -log10 of the molar concentration.

GET /values?readout=pIC50&item= COc1ccc(/C=C\c2cc(OC)c(OC)c(OC)c2)cc1O [CA-4, Combretastatin A-4]
5.79
